src = patent US11638713B2

- Test method notes: in vitro
- Cond: human, CC50 (nM)
Parameter: CC50

Query: What value of measured CC50 is listed for COc1cc2c(OC3OC[C@H](O)[C@H](O)[C@H]3O)c3c(c(-c4ccc5c(c4)OCO5)c2cc1OC)C(=O)OC3 (stereo partly drawn) [Compound 26c, 7-O-α-L-arabinosyldiphyllin] ?
Reply: > 9760 nM

Query: Would you mind telling me what CC50 value was observed for COc1cc2c(OC3O[C@H](C)[C@@H](O)[C@H](OC(=O)c4ccccc4)[C@H]3O)c3c(c(-c4ccc5c(c4)OCO5)c2cc1OC)C(=O)OC3 (stereo partly drawn) [Compound 31d, 3″-O-benzoyl-7-O-β-D-patentiflorin A] ?
Reply: > 63 nM

Query: Given the compound COc1cc2c(N=C(c3ccccc3)c3ccccc3)c3c(c(-c4ccc5c(c4)OCO5)c2cc1OC)C(=O)OC3 [Compound 19p] , what is its reported CC50?
Reply: > 9200 nM
